study.system: HLA-A*31:01
assay: IEDB peptide-MHC binding, purified MHC/competitive/radioactivity; filed as Kd, often an IC50 or EC50 that approximates it; bounds were set here for any values at or beyond the usual limits of such assays
experimental.setup: source organism: Dengue virus 1 Nauru/West Pac/1974
pKd: −log10 of the molar value.
endpoint.label: pKd

Entry "LITENKIWGR" , tested on HLA-A*31:01, has a reported pKd of ≤ 4.68

###

Field: pKd. Provide a value for each of the sequences that follow.
study.system: HLA-A*31:01
assay: IEDB peptide-MHC binding, purified MHC/competitive/radioactivity; filed as Kd, often an IC50 or EC50 that approximates it; bounds were set here for any values at or beyond the usual limits of such assays
experimental.setup: source organism: Vaccinia virus WR
One number for each entry, as −log10 of the molar value.

See these solved cases before continuing.
- sequence: "QLVFNSISAR"
  study.system: "HLA-A*31:01"
  endpoint.label: "pKd"
  measurement: 6.95
- sequence: "NVPERQLILR"
  study.system: "HLA-A*31:01"
  endpoint.label: "pKd"
  measurement: 7.06
- sequence: "YLGSANMDWR"
  study.system: "HLA-A*31:01"
  endpoint.label: "pKd"
  measurement: 5.87

Provide pKd values for the following items, in order.
1. SFLRKIGDK
2. YLRLYIILAR
3. NVQFVDINR
4. ASGQRCHFIK

(A)
[6.61, 7.90, 7.42, 5.83]

I need pKd for every entry listed below, if you could help.
1. ILARNEEGR
2. ATFIDVHIPK
3. MFMLIFNVK
4. EIINFTISMR

(A)
1. 5.34
2. 6.04
3. 6.90
4. 6.37

Report pKd for each item below.
1. YVEKEENMDK
2. NAKVGDDVK

(A)
5.90
5.00

###

study.system: HLA-A*69:01
assay: IEDB peptide-MHC binding, purified MHC/direct/fluorescence; filed as Kd, often an IC50 or EC50 that approximates it; bounds were set here for any values at or beyond the usual limits of such assays
experimental.setup: source organism: Aracatuba virus
pKd: −log10 of the molar value.
endpoint.label: pKd

Reported pKd of "YKEPNSIIL" : ≤ 4.70

###

study.system: HLA-A*01:01
assay: IEDB peptide-MHC binding, purified MHC/direct/fluorescence; filed as Kd, often an IC50 or EC50 that approximates it; bounds were set here for any values at or beyond the usual limits of such assays
experimental.setup: source organism: Mycobacterium tuberculosis C
endpoint.label: Kd

Tested system HLA-A*01:01; Kd recorded for "FPRYPLNVL" was ≥ 20 µM

###

study.system: HLA-A*26:01
assay: IEDB peptide-MHC binding, purified MHC/direct/fluorescence; filed as Kd, often an IC50 or EC50 that approximates it; bounds were set here for any values at or beyond the usual limits of such assays
experimental.setup: source organism: Vibrio parahaemolyticus
pKd: −log10 of the molar value.
endpoint.label: pKd

Lab note: "YPKCDLVEL" gave pKd of ≤ 4.70

###

Give Kd for every item shown.
study.system: HLA-A*02:11
assay: IEDB peptide-MHC binding, purified MHC/direct/fluorescence; filed as Kd, often an IC50 or EC50 that approximates it; bounds were set here for any values at or beyond the usual limits of such assays
experimental.setup: source organism: Zaire ebolavirus

- sequence: "HQKKNEISF"
  measurement: "≥ 20 µM"

Turning now to a further sequence:
Record summary for "ATAAATEAY" : reported Kd = ≥ 20 µM

###

Kindly state pKd for each of the entries shown.
study.system: HLA-A*02:06
assay: IEDB peptide-MHC binding, purified MHC/competitive/radioactivity; filed as Kd, often an IC50 or EC50 that approximates it; bounds were set here for any values at or beyond the usual limits of such assays
experimental.setup: source organism: Vaccinia virus WR
One number for each entry, as −log10 of the molar value.

- sequence: "FTSYKRFVT"
  study.system: "HLA-A*02:06"
  measurement: 4.91
- sequence: "NVFISPASI"
  study.system: "HLA-A*02:06"
  measurement: 6.18
- sequence: "CVKYLLDNDI"
  study.system: "HLA-A*02:06"
  measurement: 5.12

pKd reported for this sequence "NTDHPLSINV" : 8.79

###

study.system: HLA-A*30:02
assay: IEDB peptide-MHC binding, purified MHC/competitive/radioactivity; filed as Kd, often an IC50 or EC50 that approximates it; bounds were set here for any values at or beyond the usual limits of such assays
experimental.setup: source organism: Variola virus
endpoint.label: Kd (nM)
Numbers only, in nM.

Data point: "RYYDGNIYDL" ; Kd = 15.2

###

study.system: HLA-A*11:01
assay: IEDB peptide-MHC binding, purified MHC/direct/fluorescence; filed as Kd, often an IC50 or EC50 that approximates it; bounds were set here for any values at or beyond the usual limits of such assays
experimental.setup: source organism: Salmonella enterica
endpoint.label: Kd

The sequence "WTDLYTSMS" on HLA-A*11:01: Kd was ≥ 20 µM

###

study.system: HLA-B*18:01
assay: IEDB peptide-MHC binding, purified MHC/competitive/fluorescence; filed as Kd, often an IC50 or EC50 that approximates it; bounds were set here for any values at or beyond the usual limits of such assays
experimental.setup: source organism: Influenza A virus H3N2
endpoint.label: pKd
Answers are plain numbers, as −log10 of the molar value.

Note to self: pKd recorded for "SFSFGGFTF" was 6.70

###

study.system: HLA-A*29:02
assay: IEDB peptide-MHC binding, purified MHC/competitive/fluorescence; filed as Kd, often an IC50 or EC50 that approximates it; bounds were set here for any values at or beyond the usual limits of such assays
experimental.setup: source organism: Giardia lamblia ATCC 50803
endpoint.label: Kd

Result for "STTTCEAGV" , tested on HLA-A*29:02, Kd: ≥ 20 µM

###

study.system: HLA-A*02:03
assay: IEDB peptide-MHC binding, purified MHC/competitive/radioactivity; filed as Kd, often an IC50 or EC50 that approximates it; bounds were set here for any values at or beyond the usual limits of such assays
experimental.setup: source organism: Vaccinia virus WR
Field: log10 Kd. Provide a value for each of the sequences that follow.
Kindly note that the scale is log10 and the underlying Kd is in nM.

Use the examples below as a reference point.
- sequence: "LLFASMGFK"
  endpoint.label: "log10 Kd"
  measurement: 2.26
- sequence: "CVKYLLDNDI"
  endpoint.label: "log10 Kd"
  measurement: 3.75
- sequence: "HIKTIAVSV"
  endpoint.label: "log10 Kd"
  measurement: 0.98
- sequence: "RIASILSLET"
  endpoint.label: "log10 Kd"
  measurement: 2.65

Could you tell me log10 Kd for each of these sequences? They are listed below.
1. ETIEILRNYL
2. RLFTRCAVI
3. LAIKNYYRKT

(A)
3.15
2.40
3.86

###

study.system: HLA-B*18:01
assay: IEDB peptide-MHC binding, purified MHC/competitive/fluorescence; filed as Kd, often an IC50 or EC50 that approximates it; bounds were set here for any values at or beyond the usual limits of such assays
experimental.setup: source organism: Burkholderia mallei SAVP1
pKd: −log10 of the molar value.
For each of the sequences below, state its pKd.

- sequence: "RFNAIWFNH"
  study.system: "HLA-B*18:01"
  pKd: "≤ 4.70"

Attention now shifts to the item below.
Briefly, pKd measured for "RLDARLQVL" : ≤ 4.70

###

study.system: HLA-B*53:01
assay: IEDB peptide-MHC binding, purified MHC/competitive/radioactivity; filed as Kd, often an IC50 or EC50 that approximates it; bounds were set here for any values at or beyond the usual limits of such assays
experimental.setup: source organism: SARS coronavirus Tor2
Provide the reported Kd of each item.
Give bare numbers, in nM.

Below, 2 sequences whose answers are already recorded.
- sequence: "LPFYSNVTGF"
  Kd, nM: 79.8
- sequence: "SPYNSQNAVA"
  Kd, nM: 15900

For the next question, use this sequence.
sequence "SPSGVYQCAM" , Kd observed: 748

###

study.system: HLA-B*40:01
assay: IEDB peptide-MHC binding, purified MHC/competitive/radioactivity; filed as Kd, often an IC50 or EC50 that approximates it; bounds were set here for any values at or beyond the usual limits of such assays
experimental.setup: source organism: Dengue virus 1 Nauru/West Pac/1974
endpoint.label: pKd
Numbers only, as −log10 of the molar value.

The sequence identified as "TEHGTTATI" registered its pKd at 7.24

###

study.system: HLA-A*24:02
assay: IEDB peptide-MHC binding, purified MHC/competitive/fluorescence; bounds were set here for any values at or beyond the usual limits of such assays
experimental.setup: source organism: Homo sapiens
endpoint.label: pIC50
Give bare numbers, as −log10 of the molar value.

The sequence listed as "SLMASSPTSI" has a reported pIC50 of 5.91

###

study.system: HLA-B*15:09
assay: IEDB peptide-MHC binding, purified MHC/competitive/fluorescence; filed as Kd, often an IC50 or EC50 that approximates it; bounds were set here for any values at or beyond the usual limits of such assays
experimental.setup: source organism: Human immunodeficiency virus 1
endpoint.label: Kd

Consider "EIKSLFNTI" . Its measured Kd is ≥ 20 µM
